- System: KB-3-1
- Measurement Protocol: Cytotoxic Profiling of Annotated Libraries Using Quantitative High-Throughput Screening (AID 1296008); further: on the % scale 0 is the no-effect control and ±100 the full control effect; nearly all actives have a fitted effect of over 60% in size
- Condition Context: Five cell lines viability, CellTiter-Glo ATP luminescence, 48-72 h; active compounds read low
Results filed as inconclusive are left out.

>  <Molecule>
O=C1CSc2ccccc2N1Cc1cccc(C(F)(F)F)c1

>  <Measurement Target>
KB-3-1

>  <Unit>
%

>  <max response>
-14

$$$$
>  <Molecule>
CC[C@H]1OC(=O)[C@](C)(F)C(=O)[C@H](C)[C@@H](O[C@@H]2O[C@H](C)C[C@H](N(C)C)[C@H]2O)[C@](C)(OC)C[C@@H](C)C(=O)[C@@H](C)[C@H]2N(CCCCn3cc(-c4cccc(N)c4)nn3)C(=O)O[C@]12C

>  <Measurement Target>
KB-3-1

>  <Unit>
%

>  <max response>
-12.6

$$$$
>  <Molecule>
COC(=O)N[C@@H](C)CNc1nccc(-c2cn(C(C)C)nc2-c2cc(Cl)cc(NS(C)(=O)=O)c2F)n1

>  <Measurement Target>
KB-3-1

>  <Unit>
%

>  <max response>
-3.34

$$$$
>  <Molecule>
Cc1ccc(NC(=O)c2ccc(CN3CC[C@H](N(C)C)C3)c(C(F)(F)F)c2)cc1Nc1nccc(-c2cncnc2)n1

>  <Measurement Target>
KB-3-1

>  <Unit>
%

>  <max response>
-1.65

$$$$
>  <Molecule>
CC(=O)OC[C@]12[C@H](OC(C)=O)C(=O)[C@@H]3[C@@H](OC(C)=O)[C@@]14O[C@@]3(C)COC(=O)c1cccnc1[C@@H](C)[C@H](C)C(=O)O[C@@H]([C@H](O)[C@@H]2OC(C)=O)[C@]4(C)O

>  <Measurement Target>
KB-3-1

>  <Unit>
%

>  <max response>
-8.82

$$$$
>  <Molecule>
C[C@H]1CC[C@@]2(OC1)O[C@H]1CC3C4CC[C@H]5C[C@@H](O)[C@H](O)C[C@]5(C)C4=CC(=O)[C@]3(C)[C@H]1[C@@H]2C (stereo partly specified)

>  <Measurement Target>
KB-3-1

>  <Unit>
%

>  <max response>
0.923

$$$$
>  <Molecule>
CC(/C=C/C1=CC2=CC(=O)C(C)(O)C(O)C2=CO1)=C\C(C)CCO (stereo unspecified)

>  <Measurement Target>
KB-3-1

>  <Unit>
%

>  <max response>
4.06

$$$$
>  <Molecule>
Cc1ccc(NC(=O)C(=O)NC2CC(C)(C)NC(C)(C)C2)cc1

>  <Measurement Target>
KB-3-1

>  <Unit>
%

>  <max response>
-0.25

$$$$
>  <Molecule>
CN(C)CCn1cc(S(=O)(=O)c2cccc(F)c2)c2cccnc21

>  <Measurement Target>
KB-3-1

>  <Unit>
%

>  <max response>
1.25

$$$$
>  <Molecule>
C[C@@H]1C(=O)OC[C@H]2C(C(=O)O)=C[C@@H]3CC(C)(C)C[C@]312

>  <Measurement Target>
KB-3-1

>  <Unit>
%

>  <max response>
5.81

$$$$
>  <Molecule>
COc1cc(/C=C/C(=O)OC[C@H]2O[C@@](CO)(O[C@H]3O[C@H](CO)[C@@H](O)[C@H](O)[C@H]3O)[C@@H](OC(=O)/C=C/c3ccc(O)c(OC)c3)[C@@H]2O)ccc1O

>  <Measurement Target>
KB-3-1

>  <Unit>
%

>  <max response>
-7.62

$$$$
>  <Molecule>
C[C@@H]1CC[C@]2(C(=O)O)CC[C@]3(C)C(=CCC4[C@@]5(C)C[C@@H](O)[C@H](O)[C@@](C)(CO)C5CC[C@]43C)C2[C@]1(C)O (stereo partly specified)

>  <Measurement Target>
KB-3-1

>  <Unit>
%

>  <max response>
2.17

$$$$
>  <Molecule>
C/C(=C\C=C\C(C)C1CCC2(C)C3CCC4C(C)(C)C(=O)CCC45CC35CCC12C)C(=O)O (stereo unspecified)

>  <Measurement Target>
KB-3-1

>  <Unit>
%

>  <max response>
-3.21

$$$$
>  <Molecule>
Cc1ccc(S(=O)(=O)Nc2ccccc2N2CCCCC2)s1

>  <Measurement Target>
KB-3-1

>  <Unit>
%

>  <max response>
-18.9

$$$$
>  <Molecule>
Cc1cc(C)nc(NS(=O)(=O)c2ccc(NC(=S)NC(=O)COc3ccc(Br)cc3Cl)cc2)n1

>  <Measurement Target>
KB-3-1

>  <Unit>
%

>  <max response>
8.68

$$$$
>  <Molecule>
CCO[C@@H]1OC(=O)C[C@@H]1NC(=O)[C@@H]1CCCN1C(=O)[C@@H](NC(=O)c1ccc(N)c(Cl)c1)C(C)(C)C

>  <Measurement Target>
KB-3-1

>  <Unit>
%

>  <max response>
2.91

$$$$
>  <Molecule>
N#Cc1ccc(C(=O)N2CCC3(CC2)N=C(N)c2c(F)ccc(F)c2N3)cn1

>  <Measurement Target>
KB-3-1

>  <Unit>
%

>  <max response>
-9.49

$$$$
>  <Molecule>
CC(=O)O[C@@H]1c2c(C)coc2C(=O)[C@@]23O[C@@H]2CC[C@H](C)[C@@]13C

>  <Measurement Target>
KB-3-1

>  <Unit>
%

>  <max response>
9.51

$$$$
>  <Molecule>
O=C(NCc1ccccn1)Nc1nnc(-c2ccco2)o1

>  <Measurement Target>
KB-3-1

>  <Unit>
%

>  <max response>
3.97

$$$$
>  <Molecule>
Cc1cccc(Oc2cnc(=O)[nH]c2)c1

>  <Measurement Target>
KB-3-1

>  <Unit>
%

>  <max response>
3.8

$$$$
>  <Molecule>
COc1ccccc1Oc1ccc(N(Cc2cccnc2)S(=O)(=O)CC(F)(F)F)cc1

>  <Measurement Target>
KB-3-1

>  <Unit>
%

>  <max response>
-5.75

$$$$
>  <Molecule>
CC1(C)CCC2(C(=O)OC3OC(CO)C(O)C(O)C3O)CCC3(C)C(=CCC4C5(C)CCC(OC6OC(C(=O)O)C(OC7OC(CO)C(O)C(O)C7O)C(OC7OC(CO)C(O)C(O)C7O)C6O)C(C)(C)C5CCC43C)C2C1 (stereo unspecified)

>  <Measurement Target>
KB-3-1

>  <Unit>
%

>  <max response>
6.58

$$$$
>  <Molecule>
CO[C@H]1C[C@@H]2CC[C@@H](C)[C@@](O)(O2)C(=O)C(=O)N2CCCC[C@H]2C(=O)O[C@H]([C@H](C)C[C@H]2CC[C@@H](OP(C)(C)=O)[C@H](OC)C2)CC(=O)[C@H](C)/C=C(\C)[C@@H](O)[C@@H](OC)C(=O)[C@H](C)C[C@H](C)/C=C/C=C/C=C/1C

>  <Measurement Target>
KB-3-1

>  <Unit>
%

>  <max response>
4.5

$$$$
>  <Molecule>
COc1c2ccoc2cc2oc(CO[C@@H]3O[C@H](CO)[C@@H](O)[C@H](O)[C@H]3O)cc(=O)c12

>  <Measurement Target>
KB-3-1

>  <Unit>
%

>  <max response>
-1.43

$$$$
>  <Molecule>
COc1ccc(C(=O)C2CCN(CC(=O)N(Cc3nc4c(c(=O)[nH]3)COCC4)CC3CC3)CC2)cc1

>  <Measurement Target>
KB-3-1

>  <Unit>
%

>  <max response>
9.05

$$$$
>  <Molecule>
NC(=O)C(CCC(F)(F)F)N(Cc1ccc(-c2ncon2)cc1F)S(=O)(=O)c1ccc(Cl)cc1 (stereo unspecified)

>  <Measurement Target>
KB-3-1

>  <Unit>
%

>  <max response>
-38

$$$$
>  <Molecule>
CC(Nc1ncnc2nc[nH]c12)c1cc2cccc(Cl)c2c(=O)n1-c1ccccc1 (stereo unspecified)

>  <Measurement Target>
KB-3-1

>  <Unit>
%

>  <max response>
-11.3

$$$$
>  <Molecule>
O=C(O)c1cc(I)ccc1NC(=O)[C@H](Cc1ccccc1)NCc1ccccc1

>  <Measurement Target>
KB-3-1

>  <Unit>
%

>  <max response>
-0.475

$$$$
>  <Molecule>
Cc1cnc(Nc2ccc(F)cc2Cl)nc1-c1c[nH]c(C(=O)NC(CO)c2cccc(Cl)c2)c1 (stereo unspecified)

>  <Measurement Target>
KB-3-1

>  <Unit>
%

>  <max response>
-9.44

$$$$
>  <Molecule>
COc1cc(N)c(Cl)cc1C(=O)NC[C@@H]1CCN2CCC[C@@H]12

>  <Measurement Target>
KB-3-1

>  <Unit>
%

>  <max response>
-4.24

$$$$
>  <Molecule>
CC(=O)c1ccc(O[C@@H]2O[C@H](CO)[C@@H](O)[C@H](O)[C@H]2O)cc1

>  <Measurement Target>
KB-3-1

>  <Unit>
%

>  <max response>
2.85

$$$$

Data provenance: PubChem BioAssay (NCATS)
